meta.source: patent US20250026765A1

Let's look at some compounds and their measured IC50.
biological target: human ether-a-go-go related gene (hERG) channel (Homo sapiens (Human), UniProt Q12809); assay: hERG test (FluxOR II potassium channel assay, FLIPR); details: CHO cells expressing hERG channel, thallium flux fluorescence, 10 minutes
Sequence (Q12809 whole entry): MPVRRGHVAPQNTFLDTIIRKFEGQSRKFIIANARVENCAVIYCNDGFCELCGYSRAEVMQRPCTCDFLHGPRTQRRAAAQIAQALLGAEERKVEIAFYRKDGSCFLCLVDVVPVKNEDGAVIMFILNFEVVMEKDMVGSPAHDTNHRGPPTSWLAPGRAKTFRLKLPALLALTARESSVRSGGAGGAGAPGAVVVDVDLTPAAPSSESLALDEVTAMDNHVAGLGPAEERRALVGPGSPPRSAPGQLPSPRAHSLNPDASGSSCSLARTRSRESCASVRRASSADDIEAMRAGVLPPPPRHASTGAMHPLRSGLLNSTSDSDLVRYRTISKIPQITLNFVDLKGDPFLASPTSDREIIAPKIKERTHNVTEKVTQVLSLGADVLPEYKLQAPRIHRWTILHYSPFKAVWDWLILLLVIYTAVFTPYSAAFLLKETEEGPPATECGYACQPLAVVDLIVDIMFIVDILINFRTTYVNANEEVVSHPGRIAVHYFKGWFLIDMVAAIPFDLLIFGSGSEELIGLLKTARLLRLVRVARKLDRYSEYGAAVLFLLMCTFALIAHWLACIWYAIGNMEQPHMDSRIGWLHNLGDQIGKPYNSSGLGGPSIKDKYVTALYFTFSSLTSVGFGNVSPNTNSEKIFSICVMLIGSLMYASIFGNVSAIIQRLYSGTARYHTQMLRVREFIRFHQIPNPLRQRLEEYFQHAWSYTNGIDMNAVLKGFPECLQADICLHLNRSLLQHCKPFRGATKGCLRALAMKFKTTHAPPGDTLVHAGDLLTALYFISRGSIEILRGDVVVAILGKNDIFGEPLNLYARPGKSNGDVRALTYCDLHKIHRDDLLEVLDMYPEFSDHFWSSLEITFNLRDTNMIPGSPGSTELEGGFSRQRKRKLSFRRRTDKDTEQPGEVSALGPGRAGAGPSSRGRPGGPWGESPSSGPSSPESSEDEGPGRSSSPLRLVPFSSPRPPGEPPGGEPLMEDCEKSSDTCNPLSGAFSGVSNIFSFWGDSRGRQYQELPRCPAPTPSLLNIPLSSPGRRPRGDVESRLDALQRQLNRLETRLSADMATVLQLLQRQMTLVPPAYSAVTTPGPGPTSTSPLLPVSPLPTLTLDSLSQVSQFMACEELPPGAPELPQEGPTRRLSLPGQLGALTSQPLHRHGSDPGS
metric: IC50 (µM)

smi	measurement units	relation qualifier	experimental result
Cc1nc(CN(Cc2ccc(OCC(F)(F)C(F)(F)F)cc2F)C2=NOC3(CCN(C)CC3)N2)co1	µM	=	20.6
CCCCOc1ccc(CN(Cc2coc(C)n2)C2=NOC3(CCN(C)CC3)N2)cc1F	µM	>	52
CCCCOc1ccc(CN(Cc2cnn(C)n2)C2=NOC3(CCN(C)CC3)N2)cc1	µM	>	52
Cc1nc(CN(Cc2ccc(OCC(C)C)cc2F)C2=NOC3(CCN(C)CC3)N2)co1	µM	>	52
CCCCOc1ccc(CN(Cc2coc(CF)n2)C2=NOC3(CCN(C)CC3)N2)cc1	µM	=	17.9
